Molecular target: T1, human CD8αα homodimer, recombinant protein (Acro Biosystems) (human, UniProt P01732 22-182)
T1 construct: also called CD8αα antigen; biotinylated CD8α recombinant protein (CDA-H82E3)
T1 sequence (P01732 22-182 limits assumed): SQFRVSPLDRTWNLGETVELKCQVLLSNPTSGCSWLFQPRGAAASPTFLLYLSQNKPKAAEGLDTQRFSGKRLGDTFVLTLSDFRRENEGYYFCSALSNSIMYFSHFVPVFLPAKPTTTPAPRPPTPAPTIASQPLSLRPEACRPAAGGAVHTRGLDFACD
Test: BLI kinetics, F(ab) on biotinylated CD8α (SA-XT sensor), 1:1 fit, 37 °C [CONT'ED]
Recorded koff, one value per entry.
State the value, then name its unit.

Below are worked cases with known answers.
| BINDER | koff |
| --- | --- |
| CBD1032 (Fab, V domains shown, also called h1017-H1/L1 F(ab)) VH: QVQLVQSGAEVKKPGASVKVSCKASRYTFTDYNLHWVRQAPGQGLEWMGFIYPYNGGTGYAQKFQGRVTMTRDTSTSTVYMELSSLRSEDTAVYYCARDHRYNEGVSFDYWGQGTTVTVSS VL: DIQMTQSPSSLSASVGDRVTITCRASESVDGFGNSFMNWYQQKPGKAPKLLIYLASNLESGVPSRFSGSGSGTDFTLTISSLQPEDFATYYCQQNNEDPYTFGQGTKLEIK | 5.35e-05 s⁻¹ |
| CBD1034 (Fab, V domains shown, also called h1017-H2/L3 F(ab)) VH: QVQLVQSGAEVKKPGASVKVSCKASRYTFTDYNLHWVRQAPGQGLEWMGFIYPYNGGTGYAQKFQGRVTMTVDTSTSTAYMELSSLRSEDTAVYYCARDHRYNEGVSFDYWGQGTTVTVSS VL: DIQLTQSPSSLSASVGDRATITCRASESVDGFGNSFMNWYQQKPGKAPKLLIYLASNLESGVPSRFSGSGSRTDFTLTISSVQPEDFATYYCQQNNEDPYTFGQGTKLEIK | 0.000187 s⁻¹ |

QUERY: Tell me measured koff for CBD1038 (Fab, V domains shown, also called h1017-H4/L3 F(ab)) VH: QVQLVQSGAEVKKPGASVKVSCKASRYTFTDYNLHWVRQAPGQGLEWMGFIYPYNGGTGYAQKFQGRVTMTVDYSTSTAYMELSSLRSEDTAVYYCARDHRYNEGVSFDYWGQGTTVTVSS VL: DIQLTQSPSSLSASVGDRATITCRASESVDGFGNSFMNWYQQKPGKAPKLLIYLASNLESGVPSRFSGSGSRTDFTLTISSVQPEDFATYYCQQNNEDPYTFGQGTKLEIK please.
RESULT: 0.00014 s⁻¹

QUERY: Tell me measured koff for CBD1033 Fab (h1017-H2 / h1017-L2) (Fab, V domains shown, Expressed as F(ab) fragment; also called CBD1033 Fab molecule) VH: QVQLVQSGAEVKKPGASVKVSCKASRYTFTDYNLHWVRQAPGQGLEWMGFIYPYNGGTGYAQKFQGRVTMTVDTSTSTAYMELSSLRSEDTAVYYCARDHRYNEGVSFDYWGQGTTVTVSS VL: DIQLTQSPSSLSASVGDRATITCRASESVDGFGNSFMNWYQQKPGKAPKLLIYLASNLESGVPSRFSGSGSGTDFTLTISSVQPEDFATYYCQQNNEDPYTFGQGTKLEIK please.
RESULT: 0.000194 s⁻¹
